ASSAY_ENDPOINT: melting point

Which value of melting point has been reported for COc1ccc(-n2nc(C(F)(F)F)c(C)c2-c2ccc(OCCNC(N)=O)cc2)cc1 in the records? 150.5 to 151.1 °C

Which value of melting point has been reported for COc1ccc(-n2nc(OCC(C)C)cc2-c2ccc(OCCNS(C)(=O)=O)cc2)cc1 in the records? 164.3 to 165.2 °C

Which value of melting point has been reported for COCOc1ccc(-c2cc([S+](C)[O-])nn2-c2ccc(OC)cc2)cc1 (stereo not shown) in the records? 136.9 to 137.3 °C

Which value of melting point has been reported for COc1ccc(-n2nc(C(F)(F)F)cc2-c2ccc(CCNC(C)=O)cc2)cc1 in the records? 79 to 80 °C

Which value of melting point has been reported for COc1ccc(-n2nc(OCC(=O)N(C)C)cc2-c2ccc(OCCNC(N)=O)cc2)cc1 in the records? 223 to 227 °C

Which value of melting point has been reported for COc1ccc(-n2nc(NC(=O)N(C)C)cc2-c2ccc(OCCNS(C)(=O)=O)cc2)cc1 in the records? 166 to 167 °C

Which value of melting point has been reported for COc1ccc(-n2nc(C3CC3)cc2-c2ccc(OCCNS(N)(=O)=O)cc2)cc1 in the records? 142 to 143 °C

Which value of melting point has been reported for COCCOc1cc(-c2ccc(OCCNC(N)=O)cc2)n(-c2ccc(OC)cc2)n1 in the records? 131 to 132 °C

Which value of melting point has been reported for CCN(C)C(=O)c1cc(-c2ccc(OCCN)cc2)n(-c2ccc(OC)cc2)n1.Cl in the records? 207 to 209 °C

Which value of melting point has been reported for COc1ccc(-n2nc(-c3nc(C)no3)cc2-c2ccc(CCO)cc2)cc1 in the records? 148 to 150 °C
